Listing of recorded glycan array binding signal (z-score) by entry.
Biological target: Neu5Ac(a2-3)Gal(b1-4)GlcNAc(b1-6)[Neu5Ac(a2-3)Gal(b1-3)]GalNAc
Assay: glycan array binding signal (z-score within array); higher = stronger binding
Conditions: glycan notation: IUPAC condensed, linker removed
Many of the other results were omitted from the sample, so the strongest signals are more common in it than they were.
readout-kind: glycan array binding signal (z-score)

- binder: "APVPVTKLVCDGDTYKCTAYLDFGDGRWVAQWDTNVFHTG [PhoSpL (Pholiota squarrosa)]"
  observed-result: -0.322
- binder: "VLRB.aGPA.23-GCN4-biotin (Petromyzon marinus) (protein) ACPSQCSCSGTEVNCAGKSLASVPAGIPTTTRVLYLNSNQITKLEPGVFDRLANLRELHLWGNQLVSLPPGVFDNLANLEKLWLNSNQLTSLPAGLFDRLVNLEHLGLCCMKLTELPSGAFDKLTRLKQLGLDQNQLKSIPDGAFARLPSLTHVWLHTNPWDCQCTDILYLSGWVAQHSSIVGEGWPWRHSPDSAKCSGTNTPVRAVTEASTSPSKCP"
  observed-result: -0.087
- binder: "rCnSL-A (Clitocybe nebularis) (protein) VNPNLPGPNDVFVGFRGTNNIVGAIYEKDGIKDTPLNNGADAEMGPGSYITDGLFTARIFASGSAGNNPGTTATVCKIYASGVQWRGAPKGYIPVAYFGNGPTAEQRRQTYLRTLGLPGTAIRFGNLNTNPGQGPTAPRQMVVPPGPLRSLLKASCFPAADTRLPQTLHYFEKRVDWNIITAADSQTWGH"
  observed-result: -0.165
